Tested on: NCI-H460
assay-protocol: NCI tumour cell line growth inhibition, 48 h
Activity calls are given as the source filed them. No stated cut-off is given here; in the data, active = GI50 up to about 1.1 µM and inactive = higher.
Would you mind telling me the reported GI50 of each entry?

The reported value for `COc1cccc(/C=C2/Sc3scc(-c4ccccc4)[n+]3C2=O)c1O` in terms of GI50 is 17.3 µM (inactive)

Record `CCN(CC)c1ccc(/C=C/c2ccnc3ccccc23)cc1` , field GI50: > 100 µM (inactive)

response.value for COc1ccc(C2C(C=O)C(N3CCN(C)CC3)=Nc3nc4ccccc4n32)cc1 (stereo not drawn) (field: GI50) = 25.2 µM (inactive)

---

Tested on: RPMI-8226
assay-protocol: NCI tumour cell line growth inhibition, 48 h
The source made the active and inactive calls. No stated cut-off is given here; in the data, active = GI50 up to about 1.1 µM and inactive = higher.
Use one of these outcomes when replying: active, inactive

-- ask Dear colleague, could you share the recorded outcome for COC1CC(C)(N)C(O)C(C)O1 (stereo not drawn) when you have a moment?
-- reply inactive

-- ask Dear colleague, could you share the recorded outcome for `O=C1c2ccccc2C(=O)c2sc(Nc3ccccc3Cl)nc21` when you have a moment?
-- reply inactive

-- ask Per the records of this test, what outcome belongs to `CN(C)CCCNc1c2ccccc2nc2cccc([N+](=O)[O-])c12` ?
-- reply active

---

Exercise: state measured GI50 for each of the compounds provided.
System: CCRF-CEM
assay-protocol: NCI tumour cell line growth inhibition, 48 h
The source made the active and inactive calls. No stated cut-off is given here; in the data, active = GI50 up to about 1.1 µM and inactive = higher.

Case `SCCSCCCSCCS` , CCRF-CEM, GI50 recorded as 10.5 µM (inactive)

Reported CCRF-CEM GI50 for item `COc1ccc(/C=C2\CN(C)Cc3c2nc(N)nc3-c2ccc(OC)cc2)cc1` was 41.5 µM (inactive)

The reported GI50 value, CCRF-CEM, for `N#CCc1nc(Cc2ccccc2)n[nH]1` reads > 100 µM (inactive)

The compound `CC(=O)Oc1ccn2nc(C)c(Cc3c(C)nn4ccc(OC(C)=O)cc34)c2c1` on CCRF-CEM: GI50 was 27.9 µM (inactive)

Given the compound `Cc1cc(C)nc(Nc2nc3cc([N+](=O)[O-])ccc3[nH]2)n1` and test system CCRF-CEM, the measured GI50 is > 100 µM (inactive)

For the compound CSc1nc2c(ncn2C2OC(CO)C(O)C(O)C2O)c(=O)n1C (stereo not drawn) , the measured GI50 on CCRF-CEM was > 100 µM (inactive)

Value (GI50, CCRF-CEM) for record CC(=O)OCC1OC(N2C(C)=C(C(C)=O)C(c3ccc(Cl)cc3)C(C#N)=C2S)C(OC(C)=O)C(OC(C)=O)C1OC(C)=O (stereo not drawn) = 44.1 µM (inactive)

Measured on CCRF-CEM, `Oc1c(O)c(Cc2ccccc2)c(Cc2ccccc2)c(Cc2ccccc2)c1Cc1ccccc1` has a documented GI50 of > 10 µM (inactive)

CCRF-CEM data for CN(C)CCN(C)CC1COC(C)(C)O1 (stereo not drawn) ; its GI50: > 100 µM (inactive)

Entry `COc1ccc2c(c1)CC[C@@H]1[C@@H]2CC[C@]2(C)/C(=N/OCCN3CCCCC3)CC[C@@H]12` , CCRF-CEM data, GI50 value: 3.28 µM (inactive)

Value sought: GI50, system CCRF-CEM, item CC(Oc1ccccc1)C(=O)NNC(=O)OC(C)(C)C (stereo not drawn) . Result: > 100 µM (inactive)

Item COc1ccc(C2Oc3ccc(O)cc3[C@@H]2C)cc1OC (stereo partly drawn) was tested on CCRF-CEM; the reported GI50 is 17.5 µM (inactive)

Observed GI50, CCRF-CEM, `CC(C)(C)c1cc(CC2C(=O)c3ccccc3C2=O)cc(C(C)(C)C)c1O` : 4.04 µM (inactive)

The measured GI50 that CCN1C(=O)N2C(OC)c3ccccc3C(Br)C2(OC)C1=O (stereo not drawn) showed for CCRF-CEM is > 100 µM (inactive)

Recorded GI50 for `CSc1ccc(-c2cc(-c3nc4ccccc4[nH]3)no2)cc1` on CCRF-CEM was 18.4 µM (inactive)

Form: item `CCOC(=O)C(=[N+]=[N-])C(=O)CSC#N` ; test system CCRF-CEM; GI50: 35.1 µM (inactive)

Note to self: GI50 of CC1(c2ccc(Cl)cc2)N=C(NCCO)c2ccccc21 (stereo not drawn) with CCRF-CEM was 2.9 µM (inactive)

CCRF-CEM assay, compound `CC(=O)NNc1nc(C)c(C(=O)/C=C/c2cccc([N+](=O)[O-])c2)s1` , recorded GI50 = > 100 µM (inactive)
